Here, each record is paired with measured AUC(0-inf) data.
# Protocol Text: Pharmacokinetics test in SD rats
# Format: in vivo
# Stated Conditions: rat, plasma; male SD rats, iv 1 mg/kg
Please append the unit to your numeric answer.

Consider the following illustrative entries.
O=C(O)c1ccc2c(c1)Oc1ccc(OCc3c(-c4c(Cl)cccc4Cl)noc3C3CC3)nc1C=C2F [Example 1] | 1540 ng·h/mL
O=C(O)c1ccc2c(c1)Oc1ccc(OCc3c(-c4c(Cl)cccc4Cl)noc3C3CC3)nc1C(F)(F)C2 [Example 10] | 1330 ng·h/mL

Ask: What value of measured AUC(0-inf) is listed for O=C(O)c1ccc2c(c1)Oc1ccc(OCc3c(-c4c(Cl)cccc4Cl)noc3C3CC3)nc1C(F)=C2 [Example 5] ?
Result: 1580 ng·h/mL

Ask: Again, but for O=C(O)c1ccc2c(c1)Oc1ccc(OCc3c(-c4c(Cl)cccc4Cl)noc3C3CC3)nc1CO2 [Example 2]
Result: 1150 ng·h/mL
